Please respond with reported CSP for every item in the list.
study-system: GABARAPL2 (Homo sapiens, UniProt P60520)
Sequence (P60520 whole entry): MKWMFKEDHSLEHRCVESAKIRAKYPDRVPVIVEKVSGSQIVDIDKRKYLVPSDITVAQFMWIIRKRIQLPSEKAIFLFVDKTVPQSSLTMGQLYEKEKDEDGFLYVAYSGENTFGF
assay-context: residue S110; GABARAPL2:ligand molar ratio 1:2
Write the value in ppm as a bare number.

Which CSP is listed for O=c1cc(-c2ccccc2)c2c(O)cc(O)cc2o1 [compound 2] ?
0.00122

Which CSP is listed for O=C1Nc2ccc(Br)cc2C1=Cc1cc(O)c(O)c(Br)c1 [compound 1] ?
0.00127

Which CSP is listed for Cc1ccc(C(=O)N(CCCN)[C@@H](c2nc3cc(Cl)ccc3c(=O)n2Cc2ccccc2)C(C)C)cc1 [compound 3] ?
0.000825

Which CSP is listed for O=C1Nc2ccc(I)cc2C1=Cc1cc(Br)c(O)c(Br)c1 [compound 4] ?
0.010

* * *

Please respond with reported CSP for every item in the list.
study-system: GABARAPL2 (Homo sapiens)
assay-context: residue R14; GABARAPL2:ligand molar ratio 1:2
Write the value in ppm as a bare number.

Which CSP is listed for O=C1Nc2ccc(Br)cc2C1=Cc1cc(O)c(O)c(Br)c1 ?
0.018

Which CSP is listed for O=C1Nc2ccc(I)cc2C1=Cc1cc(Br)c(O)c(Br)c1 ?
0.091

Which CSP is listed for O=c1cc(-c2ccccc2)c2c(O)cc(O)cc2o1 ?
0.0095

Which CSP is listed for Cc1ccc(C(=O)N(CCCN)[C@@H](c2nc3cc(Cl)ccc3c(=O)n2Cc2ccccc2)C(C)C)cc1 ?
0.003

* * *

Please respond with reported CSP for every item in the list.
study-system: GABARAPL2 (Homo sapiens)
assay-context: residue K2; GABARAPL2:ligand molar ratio 1:2
Write the value in ppm as a bare number.

Which CSP is listed for O=C1Nc2ccc(Br)cc2C1=Cc1cc(O)c(O)c(Br)c1 ?
0.007

Which CSP is listed for Cc1ccc(C(=O)N(CCCN)[C@@H](c2nc3cc(Cl)ccc3c(=O)n2Cc2ccccc2)C(C)C)cc1 ?
0.008

Which CSP is listed for O=C1Nc2ccc(I)cc2C1=Cc1cc(Br)c(O)c(Br)c1 ?
0.017

Which CSP is listed for O=c1cc(-c2ccccc2)c2c(O)cc(O)cc2o1 ?
0.005

* * *

Please respond with reported CSP for every item in the list.
study-system: GABARAPL2 (Homo sapiens, UniProt P60520)
assay-context: residue G103; GABARAPL2:ligand molar ratio 1:2
Write the value in ppm as a bare number.

Which CSP is listed for O=C1Nc2ccc(Br)cc2C1=Cc1cc(O)c(O)c(Br)c1 ?
0.009

Which CSP is listed for O=C1Nc2ccc(I)cc2C1=Cc1cc(Br)c(O)c(Br)c1 ?
0.019

Which CSP is listed for O=c1cc(-c2ccccc2)c2c(O)cc(O)cc2o1 ?
0.005

Which CSP is listed for Cc1ccc(C(=O)N(CCCN)[C@@H](c2nc3cc(Cl)ccc3c(=O)n2Cc2ccccc2)C(C)C)cc1 ?
0.00213

* * *

study-system: UniProtKB P60520
assay-context: residue A23; GABARAPL2:ligand molar ratio 1:2
Please respond with reported CSP for every item in the list.
Write the value in ppm as a bare number.

Which CSP is listed for O=C1Nc2ccc(I)cc2C1=Cc1cc(Br)c(O)c(Br)c1 ?
0.058

Which CSP is listed for O=c1cc(-c2ccccc2)c2c(O)cc(O)cc2o1 ?
0.008

Which CSP is listed for Cc1ccc(C(=O)N(CCCN)[C@@H](c2nc3cc(Cl)ccc3c(=O)n2Cc2ccccc2)C(C)C)cc1 ?
0.00424

Which CSP is listed for O=C1Nc2ccc(Br)cc2C1=Cc1cc(O)c(O)c(Br)c1 ?
0.017

Provenance of the data: paper PMC11589570
